These entries and their values trace back to patent US20250304677A1.

Target: T1, mouse folate receptor alpha (mFRα), recombinant protein (mouse, UniProt P35846 25-232)
T1 construct: Bought recombinant proteins (e.g. biotinylated, Acro Biosystems FO1-M82E9); also called mFOLR1; Ms FOLR1
T1 sequence (P35846 25-232 limits assumed): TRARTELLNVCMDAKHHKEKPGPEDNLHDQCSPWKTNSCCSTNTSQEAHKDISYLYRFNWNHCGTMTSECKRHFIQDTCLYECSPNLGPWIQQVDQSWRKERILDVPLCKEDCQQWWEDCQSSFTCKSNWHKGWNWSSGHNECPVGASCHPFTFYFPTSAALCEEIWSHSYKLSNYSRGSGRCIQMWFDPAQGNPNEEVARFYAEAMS
Experiment: BLI, biotinylated FOLR1 on streptavidin biosensors
Measured Attribute: Fold to WT (koff)
Could you keep your reply to the number by itself?

Examples with their reported Fold to WT (koff) follow.
INSERT INTO assay_data (binder, numeric_readout) VALUES
  ('2HFO9(G54H)-NT (VHH, not shown: neurotensin tridecapeptide (NT) and any linker or tags of the fusion) VHH: QVQLQESGGGLVQAGGSLRLSCAASGSGFSGMIMGWYRQAPGKQRELVATITSHGTTNYADSVKGRFTISRDNAKNTVLLQMNSLKPEDTAVYYCNAHFPGIYWGKGTQVTVSS', 0.3),
  ('2HFO9 (I51V,G54H)-NT (VHH, not shown: neurotensin tridecapeptide (NT) and any linker or tags of the fusion) VHH: QVQLQESGGGLVQAGGSLRLSCAASGSGFSGMIMGWYRQAPGKQRELVATVTSHGTTNYADSVKGRFTISRDNAKNTVLLQMNSLKPEDTAVYYCNAHFPGIYWGKGTQVTVSS', 0.3),
  ('2MFR67 (E72D, D72N, S74A)-NT (VHH, not shown: small tags and cut ends, Second substitution printed D72N; also called 2MFR67 triple mutant) VHH: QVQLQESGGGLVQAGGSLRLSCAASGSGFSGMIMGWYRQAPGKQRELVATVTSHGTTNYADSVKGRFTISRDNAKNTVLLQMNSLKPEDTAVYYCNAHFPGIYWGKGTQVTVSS', 2.6);

Now examine the next entry.
[Q] Given 2HFO9(I51V)-NT (VHH, not shown: neurotensin tridecapeptide (NT) and any linker or tags of the fusion) VHH: QVQLQESGGGLVQAGGSLRLSCAASGSGFSGMIMGWYRQAPGKQRELVATVTSGGTTNYADSVKGRFTISRDNAKNTVLLQMNSLKPEDTAVYYCNAHFPGIYWGKGTQVTVSS , state its recorded Fold to WT (koff).
[A] 1.8
